Origin of values: patent US8470828B2

Could you please report measured melting point for the items listed next?
Provide only the numeric value, understood in °C.

// O=C(N[C@H]1CC[C@H](CCN2CCN(c3nccc4c3OCC4)CC2)CC1)C1CC1(F)F (stereo partly shown) : melting point value = 227

melting point recorded for this molecule, N#CCC(=O)N[C@H]1CC[C@H](CCN2CCN(c3nccc4c3OCC4)CC2)CC1 , is 215.5

CCC(C)C(=O)N[C@H]1CC[C@H](CCN2CCN(c3nccc4c3OCC4)CC2)CC1 (mixture of isomers) yielded melting point of 196.5

Reported melting point ( O=C(CC1CCC1)N[C@H]1CC[C@H](CCN2CCN(c3nccc4c3OCC4)CC2)CC1 ) = 147.5

Reported melting point ( O=C(Cc1noc2ccccc12)N[C@H]1CC[C@H](CCN2CCN(c3nccc4c3OCC4)CC2)CC1 ) = 211

For record CC(C)(C)Oc1ccc(C(=O)N[C@H]2CC[C@H](CCN3CCN(c4nccc5c4OCC5)CC3)CC2)cc1 the listed melting point is 168.5

Entry C[C@]1(O)CC[C@H](C(=O)N[C@H]2CC[C@H](CCN3CCN(c4nccc5c4OCC5)CC3)CC2)CC1 ; melting point = 172.5

Form field melting point, entry CC(=O)N[C@H]1CC[C@H](CCN2CCN(c3nccc4c3OCC4)CC2)CC1 : 195

The molecule C[C@]1(O)CC[C@@H](C(=O)N[C@H]2CC[C@H](CCN3CCN(c4nccc5c4OCC5)CC3)CC2)CC1 showed melting point equal to 219

molecule O=C(CC1COCCO1)N[C@H]1CC[C@H](CCN2CCN(c3nccc4ccoc34)CC2)CC1 (mixture of isomers) , melting point observed: 193

The molecule listed as COCC(=O)N[C@H]1CC[C@H](CCN2CCN(c3nccc4c3OCC4)CC2)CC1 has a reported melting point of 126.5

Form field melting point, entry O=C(N[C@H]1CC[C@H](CCN2CCN(c3nccc4c3OCC4)CC2)CC1)C1CC1 : 193

Please fill in: melting point reported for COC(CC(=O)N[C@H]1CC[C@H](CCN2CCN(c3nccc4c3OCC4)CC2)CC1)OC = 218

Lab book: melting point of CS(=O)(=O)c1ccc(C(=O)N[C@H]2CC[C@H](CCN3CCN(c4nccc5c4OCC5)CC3)CC2)s1 noted as 212

So for O=C(CCO)N[C@H]1CC[C@H](CCN2CCN(c3nccc4c3OCC4)CC2)CC1 , the logged melting point turned out to be 257

# molecule CC[C@H](O)CC(=O)N[C@H]1CC[C@H](CCN2CCN(c3nccc4c3OCC4)CC2)CC1 ; its melting point = 217

Lab book: melting point of O=C(N[C@H]1CC[C@H](CCN2CCN(c3nccc4c3OCC4)CC2)CC1)C(O)C(F)(F)F (mixture of isomers) noted as 185

Measured melting point, CN(C)C(=O)N[C@H]1CC[C@H](CCN2CCN(c3nccc4c3OCC4)CC2)CC1 : 217.5

Looking up O=C(N[C@H]1CC[C@H](CCN2CCN(c3nccc4c3OCC4)CC2)CC1)c1ccc(N2CCCCC2)cc1 , I found its melting point recorded as 182.5

Per the record, O=C(C[C@@H]1COCCO1)N[C@H]1CC[C@H](CCN2CCN(c3nccc4c3OCC4)CC2)CC1 has melting point of 181

Reported melting point of COCCC(=O)N[C@H]1CC[C@H](CCN2CCN(c3nccc4c3OCC4)CC2)CC1 : 180

Kindly note the recorded melting point for O=C(N[C@H]1CC[C@H](CCN2CCN(c3nccc4c3OCC4)CC2)CC1)c1ccnc2ccccc12 , which is 222

Form field melting point, entry O=C(N[C@H]1CC[C@H](CCN2CCN(c3nccc4c3OCC4)CC2)CC1)c1ccc2c(c1)OCO2 : 213.5

The reported melting point of the molecule O=C(CCC(F)(F)F)N[C@H]1CC[C@H](CCN2CCN(c3nccc4c3OCC4)CC2)CC1 was 204.5

Memo: Cc1cc(C(=O)N[C@H]2CC[C@H](CCN3CCN(c4nccc5c4OCC5)CC3)CC2)on1 , reported melting point: 199

Documented melting point of O=S(=O)(N[C@H]1CC[C@H](CCN2CCN(c3nccc4c3OCC4)CC2)CC1)c1ccc(F)cc1 : 148

Noted for O=C(N[C@H]1CC[C@H](CCN2CCN(c3nccc4c3OCC4)CC2)CC1)c1ccccc1 : its melting point reads 221

Just so you know, measured melting point for CC(C)(C)CC(=O)N[C@H]1CC[C@H](CCN2CCN(c3nccc4c3OCC4)CC2)CC1 came out at 193

Just so you know, measured melting point for O=C(N[C@H]1CC[C@H](CCN2CCN(c3nccc4c3OCC4)CC2)CC1)c1ccc(F)cc1 came out at 235.5

The recorded melting point for entry O=C(N[C@H]1CC[C@H](CCN2CCN(c3nccc4c3OCC4)CC2)CC1)c1ccc(-n2cccc2)cc1 equals 236.5

Notebook: O=C(CC1CC1)N[C@H]1CC[C@H](CCN2CCN(c3nccc4c3OCC4)CC2)CC1 , melting point read as 197.5
